System: T1, recombinant human activated Factor VII (FVIIa) (human, UniProt P08709 61-212; P08709 213-466, ten glutamate residues of the Gla domain may be gamma-carboxylated)
T1 construct: chains tethered by a disulfide bond; also called Factor VIIa; rFVIIa
T1 sequence 1: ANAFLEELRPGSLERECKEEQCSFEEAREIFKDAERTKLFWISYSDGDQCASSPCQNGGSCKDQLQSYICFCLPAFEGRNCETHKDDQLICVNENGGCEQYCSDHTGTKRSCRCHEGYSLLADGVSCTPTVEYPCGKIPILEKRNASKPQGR
T1 sequence 2: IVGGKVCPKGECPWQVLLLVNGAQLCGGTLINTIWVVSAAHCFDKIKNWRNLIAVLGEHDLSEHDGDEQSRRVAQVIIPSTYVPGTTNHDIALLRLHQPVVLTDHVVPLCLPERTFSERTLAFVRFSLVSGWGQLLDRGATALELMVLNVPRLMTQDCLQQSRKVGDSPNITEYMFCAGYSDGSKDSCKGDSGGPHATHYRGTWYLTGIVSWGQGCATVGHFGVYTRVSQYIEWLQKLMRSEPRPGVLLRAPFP
Assay details: BLI (Fortebio)
# Kd listing for each entry below
Report the value in nM with no unit label.

Solved cases (4 shown):
Answer with the recorded Kd for the binder listed here: VH SEQ ID NO 650 / VL SEQ ID NO 454 (antibody, IgG4, V domains shown, humanized 11F2; IgG4 S228P/kappa) VH: QVQLQESGPGLVKPSQTLSLTCTVSGYSISSDSAWSWIRQPPGKKLEWIGYIQYSGSTNYNPSLKSRVTISRDTSKNQFSLKLSSVTAADTAVYYCARSVNYYGNSFAVGPWGQGTLVTVSS VL: EIVLTQSPATLSLSPGERATLSCRASQGVSDYLHWYQQKPGEAPRLLIKYASQPATGIPARFSGSGSGTDFTLTISSLEPEDFAVYYCQNGHSFPLTFGQGTKLEIK
1.4

Answer with the recorded Kd for the binder listed here: VH SEQ ID NO 594 / VL SEQ ID NO 454 (antibody, IgG4, V domains shown, humanized 11F2; IgG4 S228P/kappa) VH: QVQLQESGPGLVKPSDTLSLTCAVSGYSISSDSAWSWIRQPPGKKLEWIGYIQYSGSTNYNPSLKSRVTMSVDTSKNQFSLKLSSVTALDTAVYYCARSVNYYGNSFAVGPWGQGTLVTVSS VL: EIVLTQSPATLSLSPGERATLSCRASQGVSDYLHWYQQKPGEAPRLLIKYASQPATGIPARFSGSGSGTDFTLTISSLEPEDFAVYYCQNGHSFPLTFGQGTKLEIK
32

Answer with the recorded Kd for the binder listed here: VH SEQ ID NO 570 / VL SEQ ID NO 390 (antibody, IgG4, V domains shown, humanized 11F2; IgG4 S228P/kappa) VH: QVQLQESGPGLVKPSDTLSLTCAVSGYSISSDSAWSWIRQPPGKGLEWIGYIQYSGSTNYNPSLKSRVTMSRDTSKNQFSLKLSSVTAADTAVYYCARSVNYYGNSFAVGPWGQGTLVTVSS VL: EIVLTQSPATLSLSPGERATLSCRASQGVSDYLAWYQQKPGEAPRLLIKYASQPATGIPARFSGSGSGTDFTLTISSLEPEDFAVYYCQNGHSFPLTFGQGTKLEIK
48

Answer with the recorded Kd for the binder listed here: VH SEQ ID NO 530 / VL SEQ ID NO 446 (antibody, IgG4, V domains shown, humanized 11F2; IgG4 S228P/kappa) VH: QVQLQESGPGLVEPSQTLSLTCTVSGYSISSDSAWSWIRQPPGKGLEWIGYIQYSGSTNYNPSLKSRVTISRDTSKNQFSLKLSSVTAADTAVYYCARSVNYYGNSFAVGYWGQGTLVTVSS VL: EIVLTQSPATLSLSPGERATLSCRASQGVSDYLAWYQQKPGQAPRLLIKYTSQPATGIPARFSGSGSGTDFTLTISSLEPEDFAVYYCQNGHSFPLTFGQGTKLEIK
7.9

---
Answer with the recorded Kd for the binder listed here: VH SEQ ID NO 634 / VL SEQ ID NO 470 (antibody, IgG4, V domains shown, humanized 11F2; IgG4 S228P/kappa) VH: QVQLQESGPGLVKPSQTLSLTCTVSGYSISSDSAWSWIRQPPGKGLEWIGYIQYSGSTNYNPSLKSRVTISRDTSKNQFSLKLSSVTAADTAVYYCARSVNYYGNSFAVGYWGQGTLVTVSS VL: EIVLTQSPATLSLSPGERATLSCRASQGVSDYLHWYQQKPGQAPRLLIKYASQPATGIPARFSGSGSGTDFTLTISSLEPEDFAVYYCQNGHSFPLTFGQGTKLEIK
1
